# target: Pleiotropic ABC efflux transporter of multiple drugs (Saccharomyces cerevisiae S288c) (UniProt P33302)
# Sequence (P33302 whole entry): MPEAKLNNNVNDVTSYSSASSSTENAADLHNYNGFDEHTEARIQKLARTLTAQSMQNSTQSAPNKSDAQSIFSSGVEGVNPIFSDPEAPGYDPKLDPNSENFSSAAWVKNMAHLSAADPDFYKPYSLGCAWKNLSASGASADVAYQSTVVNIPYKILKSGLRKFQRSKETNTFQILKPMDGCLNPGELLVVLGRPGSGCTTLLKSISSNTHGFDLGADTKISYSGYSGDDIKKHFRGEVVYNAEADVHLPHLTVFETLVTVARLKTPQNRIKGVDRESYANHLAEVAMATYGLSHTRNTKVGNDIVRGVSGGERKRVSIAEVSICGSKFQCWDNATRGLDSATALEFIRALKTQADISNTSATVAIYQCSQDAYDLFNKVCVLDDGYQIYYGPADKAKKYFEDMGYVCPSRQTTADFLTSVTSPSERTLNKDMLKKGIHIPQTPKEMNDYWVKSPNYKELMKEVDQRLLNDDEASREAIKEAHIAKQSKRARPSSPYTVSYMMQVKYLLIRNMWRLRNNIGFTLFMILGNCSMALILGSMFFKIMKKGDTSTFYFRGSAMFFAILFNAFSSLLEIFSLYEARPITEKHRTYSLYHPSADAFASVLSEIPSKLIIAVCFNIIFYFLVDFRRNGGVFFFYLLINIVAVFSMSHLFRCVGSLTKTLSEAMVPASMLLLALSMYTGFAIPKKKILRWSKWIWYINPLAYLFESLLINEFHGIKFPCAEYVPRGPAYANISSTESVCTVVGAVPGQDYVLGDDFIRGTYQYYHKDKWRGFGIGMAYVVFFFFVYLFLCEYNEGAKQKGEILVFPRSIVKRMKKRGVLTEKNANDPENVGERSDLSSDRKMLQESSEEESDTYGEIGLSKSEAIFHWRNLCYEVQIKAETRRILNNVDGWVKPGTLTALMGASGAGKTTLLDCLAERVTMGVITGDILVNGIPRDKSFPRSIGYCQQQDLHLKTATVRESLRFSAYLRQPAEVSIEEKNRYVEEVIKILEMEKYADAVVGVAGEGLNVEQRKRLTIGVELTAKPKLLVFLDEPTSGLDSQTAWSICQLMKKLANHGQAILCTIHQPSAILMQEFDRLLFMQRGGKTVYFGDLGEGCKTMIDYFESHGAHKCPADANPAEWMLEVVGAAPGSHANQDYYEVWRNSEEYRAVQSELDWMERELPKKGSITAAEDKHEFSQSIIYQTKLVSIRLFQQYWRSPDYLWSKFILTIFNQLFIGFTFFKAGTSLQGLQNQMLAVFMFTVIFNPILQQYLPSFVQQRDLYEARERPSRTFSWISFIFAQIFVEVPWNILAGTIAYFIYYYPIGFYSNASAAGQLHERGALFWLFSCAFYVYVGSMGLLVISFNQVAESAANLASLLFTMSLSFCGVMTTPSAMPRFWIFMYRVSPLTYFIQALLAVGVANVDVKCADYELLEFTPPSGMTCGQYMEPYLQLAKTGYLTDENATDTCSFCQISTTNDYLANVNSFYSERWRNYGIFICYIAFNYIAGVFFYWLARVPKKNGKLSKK
# assayDetails: Inhibition of Saccharomyces cerevisiae MKPDR5h multidrug transporter Pdr5p assessed as concentration required to threefold increase in rate of fluorescence signal relative to absence of inhibitor by fluorescein diacetate based high-throughput screening spectrofluorometric assay
metric: log10 of INH (log10 of the value in µM)
Remember, log10 of INH, in µM.

Field: example entries. Status: answers known.
{"molecule": "NCCCN1c2ccccc2Sc2ccc(Cl)cc21", "numericValue": 0.62}
{"molecule": "CN(C)CC/C=C1/c2ccccc2Sc2ccc(Cl)cc21", "numericValue": 1.41}
{"molecule": "COc1ccc2c(c1)N(C[C@H](C)CN(C)C)c1ccccc1S2", "numericValue": 2.11}
{"molecule": "OCCN1CCN(CCCN2c3ccccc3Sc3ccc(Cl)cc32)CC1", "numericValue": 0.81}
{"molecule": "CN(C)CCCN1c2ccccc2Sc2ccc(Cl)cc21", "numericValue": 1.76}
{"molecule": "CN1CCN(CCCN2c3ccccc3Sc3ccc(Cl)cc32)CC1", "numericValue": 0.86}
{"molecule": "CN1CCN(CCCN2c3ccccc3Sc3ccc(C(F)(F)F)cc32)CC1", "numericValue": 0.92}
{"molecule": "CCN(CC)CCN1c2ccccc2Sc2ccccc21", "numericValue": 2.52}

May I ask what log10 of INH has been recorded for CC(CN1c2ccccc2Sc2ccccc21)N(C)C (stereo not drawn) ? 2.45

May I ask what log10 of INH has been recorded for NCCCCN1c2ccccc2Sc2ccc(C(F)(F)F)cc21 ? 0.57

May I ask what log10 of INH has been recorded for CSc1ccc2c(c1)N(CCC1CCCCN1C)c1ccccc1S2 (stereo not drawn) ? 1.23

May I ask what log10 of INH has been recorded for NCCCCN1c2ccccc2Sc2ccccc21 ? 0.85

May I ask what log10 of INH has been recorded for NCCCN1c2ccccc2Sc2ccc(C(F)(F)F)cc21 ? 0.89

May I ask what log10 of INH has been recorded for CCSc1ccc2c(c1)N(CCCN1CCN(C)CC1)c1ccccc1S2 ? 0.75

May I ask what log10 of INH has been recorded for NCCCCN1c2ccccc2Sc2ccc(Cl)cc21 ? 0.28

May I ask what log10 of INH has been recorded for CN(C)CCCN1c2ccccc2Sc2ccc(C(F)(F)F)cc21 ? 1.67

====

# Tested on: Saccharomyces cerevisiae
# assayDetails: Inhibition of Saccharomyces cerevisiae MKCDR1h multidrug transporter Cdr1p assessed as concentration required to threefold increase in rate of fluorescence signal relative to absence of inhibitor by fluorescein diacetate based high-throughput screening spectrofluorometric assay
metric: INH

Field: example entries. Status: answers known.
{"molecule": "c1ccc2c(c1)Nc1ccccc1S2 [PHENOTHIAZINE]", "INH": "> 433 µM"}
{"molecule": "O=C(O)CCCCCCNC1c2ccccc2CCc2ccccc21 [AMINEPTINE]", "INH": "> 433 µM"}

May I ask what INH has been recorded for CN(C)CCCN1c2ccccc2CCc2ccccc21 [IMIPRAMINE] ? > 433 µM
